assay-text: qHTS profiling of the MIPE4 collection as inhibitors of Plasmodium falciparum (DD2) proliferation (AID 743345)
condition-description: P. falciparum Dd2 in erythrocytes, SYBR Green DNA, 72 h; at 28.5 µM (top of the series) unless noted
Listed below: parasite growth remaining, % of DMSO control (lower = more inhibition) values for each entry.
# output: bare number, implied unit %

// worked examples, parasite growth remaining, % of DMSO control (lower = more inhibition) included
Prompt: Give the measured parasite growth remaining, % of DMSO control (lower = more inhibition) of Fc1ccc(CNc2ncnc3ccc(F)cc23)cc1 .
Response: 90.6

Prompt: Give the measured parasite growth remaining, % of DMSO control (lower = more inhibition) of CC(C)C[C@@H](N)[C@H](O)C(=O)N[C@H](C(=O)N[C@H](C(=O)N[C@@H](CC(=O)O)C(=O)O)C(C)C)C(C)C .
Response: 99.5

Prompt: Give the measured parasite growth remaining, % of DMSO control (lower = more inhibition) of CN(C)c1ccccc1CN1CCCN(Cc2ccccc2N(C)C)C1c1ccncc1 .
Response: 9.84

Prompt: Give the measured parasite growth remaining, % of DMSO control (lower = more inhibition) of COc1cc2ncn(-c3cc(OCc4ccccc4S(C)(=O)=O)c(C#N)s3)c2cc1OC .
Response: 103

Prompt: Give the measured parasite growth remaining, % of DMSO control (lower = more inhibition) of NC(=O)c1nnn(Cc2cc(Cl)c(C(=O)c3ccc(Cl)cc3)c(Cl)c2)c1N .
Response: 33.4

Others:
Prompt: Give the measured parasite growth remaining, % of DMSO control (lower = more inhibition) of O=S(=O)(O)c1ccc2cc(N=Nc3cc(S(=O)(=O)O)c4cccnc4c3O)ccc2c1 .
Response: 87.9

Prompt: Give the measured parasite growth remaining, % of DMSO control (lower = more inhibition) of N#Cc1ccc(Oc2ccc3c(c2)COB3O)cc1 .
Response: 91.9

Prompt: Give the measured parasite growth remaining, % of DMSO control (lower = more inhibition) of Cc1nc(C(=O)NCC(=O)O)c(O)c2ccc(Oc3ccccc3)cc12 .
Response: 95.5

Prompt: Give the measured parasite growth remaining, % of DMSO control (lower = more inhibition) of C[C@H](c1ccc(F)cc1CCCC(=O)O)N(c1cc(F)ccc1F)S(=O)(=O)c1ccc(Cl)cc1 .
Response: 42.9

Prompt: Give the measured parasite growth remaining, % of DMSO control (lower = more inhibition) of O=C(NC[C@H](O)CO)c1ccncc1Nc1ccc(I)cc1F .
Response: 101

###

assay-text: Quantitative High-Throughput drug screen in 47 multiple myeloma cell lines against the NCATS MIPE library collection: KMM1_JCRB cell viability assay (AID 1918960); also: nearly all actives have a fitted effect of over 30% in size
condition-description: KMM1 myeloma viability, CellTiter-Glo ATP luminescence, 48 h; series mostly up to 45.8 µM
Inconclusive results are not listed. Calls of active or inactive are those of the source. Calls come from the whole dose curve; as a rule, active = well fitted cell-killing curve with a large enough effect; inconclusive = small, poorly fitted or top-dose-only effect, or effect the other way; inactive = no such curve, though single readings can be large or run the other way.
Permitted responses: active, inactive

Prompt: Just curious, what result did CO[C@H]1O[C@@H]2O[C@@]3(C)CC[C@@H]4[C@@H](C)CC[C@@H]([C@H]1C)[C@@]24OO3 get here?
Response: active

Prompt: Just curious, what result did CC[C@H]1OC(=O)[C@H](C)[C@@H](O[C@H]2C[C@@](C)(OC)[C@@H](O)[C@H](C)O2)[C@H](C)[C@@H](O[C@@H]2O[C@H](C)C[C@H](N(C)C)[C@H]2O)[C@](C)(O)C[C@H](C)C(=NOCOCCOC)[C@H](C)[C@@H](O)[C@]1(C)O get here?
Response: inactive

Prompt: Just curious, what result did CC[C@H](CC#N)OC(=O)N[C@@H](C)c1cccc(NC(=O)Nc2ccc(-c3cnco3)c(OC)c2)c1 get here?
Response: active

Prompt: Just curious, what result did CNC1CCC(N(Cc2cccc(-c3ccncc3)c2)C(=O)c2sc3ccccc3c2Cl)CC1 (configuration not stated) get here?
Response: active

Prompt: Just curious, what result did CO[C@H]1/C=C\O[C@@]2(C)Oc3c(C)c(O)c4c(O)c(c5c(nc6cc(C)ccn65)c4c3C2=O)NC(=O)C(C)=CC=C[C@H](C)[C@H](O)[C@@H](C)[C@@H](O)[C@@H](C)[C@H](OC(C)=O)[C@H]1C get here?
Response: active

Prompt: Just curious, what result did Cc1cc2c(cc1C1(c3ccc(C(=O)O)cn3)CC1)C(C)(C)CCC2(C)C get here?
Response: inactive

Others:
Prompt: Just curious, what result did NCC1CCC(C(=O)O)CC1 (configuration not stated) get here?
Response: inactive

Prompt: Just curious, what result did CC(NCCc1ccc(O)cc1)C(O)c1ccc(O)cc1 (configuration not stated) get here?
Response: active

Prompt: Just curious, what result did CCC(=C(CC)c1ccc(O)cc1)c1ccc(O)cc1 get here?
Response: active

Prompt: Just curious, what result did Clc1ccc(COC(Cn2ccnc2)c2ccc(Cl)cc2Cl)c(Cl)c1 (configuration not stated) get here?
Response: active

Prompt: Just curious, what result did Cc1ccccc1C(C(=O)NC1CCCCC1)N(C(=O)CNc1ccc(C#N)cc1)c1cccc(F)c1 (configuration not stated) get here?
Response: inactive

Prompt: Just curious, what result did CNC(=O)c1cc(Oc2ccc(NC(=O)Nc3ccc(Cl)c(C(F)(F)F)c3)c(F)c2)ccn1 get here?
Response: active

Prompt: Just curious, what result did O=C(c1ccc(C(=O)N2CCC(N3CCCC3)CC2)c(Nc2ccccc2)c1)N1CCC(N2CCCC2)CC1 get here?
Response: inactive

Prompt: Just curious, what result did CN1CCC(COc2cnc(-c3cccc(Cn4nc(-c5cccc(C#N)c5)ccc4=O)c3)nc2)CC1 get here?
Response: inactive

Prompt: Just curious, what result did CCN1C[C@H](C)n2c(c(O)c3c(=O)n(Cc4ccc(F)c(Cl)c4)nc(C(=O)NC)c32)C1=O get here?
Response: inactive

###

Listed below: Potency values for each entry.
assay-text: qHTS of pediatric cancer cell lines to identify multiple opportunities for drug repurposing: Primary screen for A673 cells (AID 1347092); also: potency is read from the fitted curve at half-maximal effect; nearly all actives have a fitted effect of over 45% in size
condition-description: A673 Ewing sarcoma viability, CellTiter-Glo ATP luminescence, 48 h; series mostly up to 46 µM
Records with an inconclusive call do not appear. Activity calls are given as the source filed them. Calls come from the whole dose curve; as a rule, active = well fitted cell-killing curve with a large enough effect; inconclusive = small, poorly fitted or top-dose-only effect; inactive = no such curve, though single readings can be large or run the other way.

// worked examples, Potency included
Prompt: Give the measured Potency of CCCCCCOC(=O)N=C(N)c1ccc(NCc2nc3cc(C(=O)N(CCC(=O)OCC)c4ccccn4)ccc3n2C)cc1 .
Response: 14.8 µM (active)

Prompt: Give the measured Potency of Nc1ccn([C@@H]2O[C@H](CO)[C@@H](O)[C@H]2O)c(=O)n1 .
Response: 0.0235 µM (active)

Others:
Prompt: Give the measured Potency of NC1(C(=O)N[C@@H](CCO)c2ccc(Cl)cc2)CCN(c2ncnc3[nH]ccc23)CC1 .
Response: 18.7 µM (active)

###

assay-text: Quantitative High-Throughput drug screen in 47 multiple myeloma cell lines against the NCATS MIPE library collection: KMS28PE_JCRB cell viability assay (AID 1918983); also: nearly all actives have a fitted effect of over 35% in size
condition-description: KMS28PE multiple myeloma viability, CellTiter-Glo ATP, 48 h; series mostly up to 45.8 µM
Inconclusive results are not listed. Activity calls are given as the source filed them. Calls come from the whole dose curve; as a rule, active = well fitted cell-killing curve with a large enough effect; inconclusive = small, poorly fitted or top-dose-only effect, or effect the other way; inactive = no such curve, though single readings can be large or run the other way.
Permitted responses: active, inactive

Prompt: Just curious, what result did CCN1CCC(n2cc(CNc3cc(Cl)c4ncc(C#N)c(Nc5ccc(F)c(Cl)c5)c4c3)nn2)CC1 get here?
Response: active

Prompt: Just curious, what result did Cc1nc(C(=O)NCC(=O)O)c(O)c2ccc(Oc3ccccc3)cc12 get here?
Response: inactive

Prompt: Just curious, what result did COc1cc(C=CC(=O)O)ccc1O get here?
Response: inactive

Prompt: Just curious, what result did CNC(=O)[C@H](Cc1ccccc1)NC(=O)[C@H](CC(C)C)[C@H](CSc1cccs1)C(=O)NO get here?
Response: active

Prompt: Just curious, what result did O=C(CO)N1CCC(c2[nH]nc(-c3ccc(Cl)cc3)c2-c2ccncn2)CC1 get here?
Response: active

Prompt: Just curious, what result did CCC=CC[C@H]1C(=O)CC[C@@H]1CC(=O)OC get here?
Response: inactive

Prompt: Just curious, what result did COC1CCC(C(=O)c2ccc3nc4c(cc3c2)CCCO4)CC1 (stereo not given) get here?
Response: active

Prompt: Just curious, what result did C[C@H](CCC(=O)O)[C@H]1CC[C@H]2[C@H]3[C@@H](CC[C@]12C)[C@@]1(C)CC[C@@H](O)C[C@H]1C[C@@H]3O get here?
Response: inactive

Prompt: Just curious, what result did COc1ccc(C=CC(=O)Nc2ccccc2C(=O)O)cc1OC get here?
Response: inactive

Prompt: Just curious, what result did COc1c(C)cnc(Cn2cnc3c(Cl)nc(N)nc32)c1C get here?
Response: active

###

assay-text: Quantitative High-Throughput drug screen in 47 multiple myeloma cell lines against the NCATS MIPE library collection: MMM1_PLB cell viability assay (AID 1918976); also: potency is read from the fitted curve at half-maximal effect; nearly all actives have a fitted effect of over 35% in size
condition-description: MMM1 myeloma cells viability, CellTiter-Glo, 48 h; series mostly up to 45.8 µM
Records with an inconclusive call do not appear. Activity calls are given as the source filed them. The call rests on the fitted dose curve; in most records, active means well fitted cell-killing curve with a large enough effect; inconclusive means small, poorly fitted or top-dose-only effect, or effect the other way; inactive means no such curve, though single readings can be large or run the other way.
readout-type: Potency

// worked examples, Potency included
Prompt: Give the measured Potency of C[C@]12C=CC(=O)C=C1CC[C@@H]1[C@@H]2[C@@H](O)C[C@@]2(C)[C@@H]1CC[C@]2(O)C(=O)CO .
Response: 0.166 µM (active)

Prompt: Give the measured Potency of CC(=O)OCC(=O)[C@@]1(O)CC[C@H]2[C@@H]3CCC4=CC(=O)C=C[C@]4(C)[C@@H]3[C@@H](O)C[C@@]21C .
Response: 2.64 µM (active)

Prompt: Give the measured Potency of NS(=O)(=O)c1ccc(Nc2nc(OCC3CCCCC3)c3[nH]cnc3n2)cc1 .
Response: 2.09 µM (active)

Prompt: Give the measured Potency of COc1ccc(-c2oc3c(CC=C(C)C)c(O)cc(O)c3c(=O)c2O)cc1 .
Response: 20.9 µM (active)

Prompt: Give the measured Potency of CC(C)C[C@H](NC(=O)c1cc2ccccc2s1)C(=O)N1CCN(C(=O)[C@H](CO)NS(=O)(=O)c2ccc(Cl)cc2Cl)CC1 .
Response: 18.7 µM (active)

Prompt: Give the measured Potency of COC1CCC(C(=O)c2ccc3nc4c(cc3c2)CCCO4)CC1 (stereo not given) .
Response: 2.64 µM (active)

Prompt: Give the measured Potency of O=C(Nc1ccc(OC(F)(F)F)cc1)c1sccc1NCc1ccnc2ccccc12 .
Response: 16.6 µM (active)

Prompt: Give the measured Potency of CCCCC[C@H](O)C=C[C@H]1[C@H](O)CC(=O)[C@H]1CCCCCCC(=O)O .
Response: 8.33 µM (active)

Now for a further compound.
Prompt: Give the measured Potency of c1ccc(-c2oc3ncnc(NC[C@@H]4CCCO4)c3c2-c2ccccc2)cc1 .
Response: 20.9 µM (active)
